# MIC50 per entry
# System: CaCl2
# protocol.summary: Antifungal sensitivity testing (broth microdilution MIC)
# Format: cell-based
# stated.conditions: Table 4; 96-well broth microdilution
# Description: Antifungal Sensitivity Testing. Minimum inhibitory concentrations (MICs) were determined in flat bottom, 96-well plate format using a modified broth microdilution protocol as previously described (Singh et al., PLoS Pathog. 5, e1000532 (2009); LaFayette et al., PLoS Pathog. 6, 79-80 (2010)). Compounds were formulated in dimethyl sulfoxide (DMSO, Sigma-Aldrich Co.); fluconazole was dissolved in sterile ddH2O. Each compound was tested in duplicate in at least two independent experiments. […]
Numeric answer only, unit µM assumed.

Nc1nc2sc(CNCCC(O)(Cn3cncn3)c3ccc(F)cc3F)cc2n(-c2ccc3c(c2)N(c2ccccc2)CCO3)c1=O (stereo not drawn) :: 12
Nc1nc2sc(CNCC(O)(Cn3cncn3)c3ccc(F)cc3F)cc2n(-c2ccc3c(c2)N(c2ccccc2)CCO3)c1=O (stereo not drawn) :: 1.6

// below: MIC50 requested for another compound
INPUT: Return MIC50 measured with CaCl2 given this compound: Nc1nc2sc(CN[C@@H]3CCN(CCC(O)(Cn4cncn4)c4ccc(F)cc4F)C3)cc2n(-c2ccc3c(c2)N(c2ccccc2)CCO3)c1=O (stereo partly drawn)
OUTPUT: 17.5
